test system: MS2 coat protein; experiment: apparent KD of MS2 coat protein; designed switch direction (-1 OFF switch, 1 ON switch): 1; higher = weaker reporter binding; settings: input ligand: none
readout: apparent KD of MS2 coat protein (nM)
The reply should contain only the number, in nM.

# query.sequence, endpoint.result
records = [
    ("UUUCUCAUGUAAGGAUAUGCAGCCGUUUCGGCUGCAGAAGGUACUAUAAUACAUGAGGAUCACCCAUGUCUCUCGCAUUGCGAG [JL SSNG1 1.48] (Eterna round: R96, puzzle: Same State NG 1)", 62),
    ("CGGGUGAUCGUAGGAUAUCUAGGAUAUGAACGAGGAUCACCCGAGCAGCAUCAGCGCAUCAGAGGAGAGAAGGACGAUCAUGCG [pwkr ssNG2 2F5 2FMN.7] (Eterna round: R96, puzzle: Same State NG 2)", 59.1),
    ("AGAGGAAGGGCAGGAUAUACGACGGAGGACGAGGUAGAAGGGUCCAUGUGAUAACAUGAGGAUCACCCAUGUACCGCGCGACGA [AK SSNG1-V2-18] (Eterna round: R96, puzzle: Same State NG 1)", 832),
    ("UUCUGACAUGAGGAUCACCCAUGUGAGACAUAUGGAGAAUCUCAGGAUAUCCUGAGGAUCACCCAGGAGAAGGGAGAUCCGACC (Eterna round: R96, puzzle: Same State NG 3)", 45.7),
]

Turning now to a further sequence:
Note to self: apparent KD of MS2 coat protein recorded for GUGGUCAGACAUGAGGAUCACCCAUGUGGAAUAAAUAAGGAAUAGGAUAUGGAAUAUAGGAUAUACCAGAAGGAUUGGUUGGUG (Eterna round: R96, puzzle: Same State NG 3) was 97
